Molecular target: VLP2 (virus-like particles, capsid protein particles of AAV serotype 2) (AAV serotype 2 (AAV2)) (UniProt P03135)
Sequence (P03135 whole entry): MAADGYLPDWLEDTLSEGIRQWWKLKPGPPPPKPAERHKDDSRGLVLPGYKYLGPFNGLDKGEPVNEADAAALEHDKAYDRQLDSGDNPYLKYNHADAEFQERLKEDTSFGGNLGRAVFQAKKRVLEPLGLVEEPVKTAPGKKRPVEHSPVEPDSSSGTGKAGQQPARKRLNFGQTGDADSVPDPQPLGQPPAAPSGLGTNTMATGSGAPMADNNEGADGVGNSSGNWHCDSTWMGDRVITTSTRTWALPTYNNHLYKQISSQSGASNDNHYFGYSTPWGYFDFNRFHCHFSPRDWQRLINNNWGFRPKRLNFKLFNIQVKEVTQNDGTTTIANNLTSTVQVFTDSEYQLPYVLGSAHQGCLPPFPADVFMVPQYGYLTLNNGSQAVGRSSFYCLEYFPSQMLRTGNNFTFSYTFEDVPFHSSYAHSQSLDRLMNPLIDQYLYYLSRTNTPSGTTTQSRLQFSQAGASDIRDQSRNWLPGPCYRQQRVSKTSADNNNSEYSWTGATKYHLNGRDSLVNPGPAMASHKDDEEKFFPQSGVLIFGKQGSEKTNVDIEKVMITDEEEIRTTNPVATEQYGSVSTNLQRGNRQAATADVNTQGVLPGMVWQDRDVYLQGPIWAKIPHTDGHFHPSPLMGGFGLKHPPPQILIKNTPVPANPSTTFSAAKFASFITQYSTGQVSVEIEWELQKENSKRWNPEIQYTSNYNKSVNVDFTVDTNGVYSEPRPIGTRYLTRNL
Assay: ELISA on immobilised VLP2 (culture supernatant, anti-His detection); A450 after 1:1 0.5 M NaOH, 30 min, 30°C divided by A450 untreated
Property Label: Remaining activity [%] (%)
Write down the numeric answer in % and omit the unit.

Per the records, this binder ( AVR21 with Q347K, N472K (receptor) MGSAGESDQITLPKHEAQLNVYVLLVPPKGEASTYDWKLITHPRDYSGEMEGEHSQILKLSNLTPGLYEYRAVVEGQNAHSEGYVNVTVEPEPRKNRPPIAIVSPQFQEISLPTTSTVIDGSQSTDDDKIVQYHWEELKGPLREEKISEDTAILKLSQLVPGKYTFRLTVVDTDGATDSTTADLTVNKAVDHHHHHH ) has Remaining activity [%] equal to 58.9

Per the records, this binder ( AVR21 with T397S (receptor) MGSAGESDQITLPKHEAQLNVYVLLVPPKGEASTYDWQLITHPRDYSGEMEGEHSQILKLSNLTPGLYEYRAVVEGQNAHSEGYVNVSVEPEPRKNRPPIAIVSPQFQEISLPTTSTVIDGSQSTDDDKIVQYHWEELKGPLREEKISEDTAILKLSQLVPGNYTFRLTVVDTDGATDSTTADLTVNKAVDHHHHHH ) has Remaining activity [%] equal to 38.4
